experiment: Toxicity liver stage against HepG2, at 10uM; format: cell-based; parameters: test concentration 10 uM, cell line HepG2-A16-CD81EGFP; details: human, HepG2-A16-CD81EGFP cells; read-out: INHIBITION
experimental readout: cytotoxicity at 10 µM (%)
Answers are plain numbers, in %.

Guide cases for cytotoxicity at 10 µM, answers given:
>>> print(df.to_string())
                                   compound  unit_text  recorded_number
0  O=C(CCC1CC1)N1C[C@@H](CN2CCCC2)[C@@H](CO)C1          %            -4.43
1  Cc1nc2cc(=O)[nH]n2c(C)c1CC(=O)Nc1cnn(C)c1          %             4.58
2     C[C@H]1C[C@@H]2CCN(Cc3ccco3)C[C@H]2O1          %            -80.1
3  CC(=O)c1ccc(NC(=O)NC(C)c2ccc3c(c2)CC(=O)N3)cc1 (centres undefined)          %            -8.03
4               c1cncc(-n2cnnc2CC2CCNCC2)c1          %            -20.1

Look up cytotoxicity at 10 µM for the entries below, preserving their order.
1. CCC1CN(CC(=O)NCCN2CCCC2)c2ccccc2S1 (centres undefined)
2. Cc1ccc(-n2nnc(C(=O)NCC3(CO)CC3)c2C2CC2)cc1
3. CN(CC1COc2ccccc2O1)C(=O)NCCCn1cccn1 (centres undefined)
4. Cc1ccccc1CC(C)(C)NC(=O)CCOc1cccc(C(N)=O)c1

### Response
1: -13.1; 2: -4.43; 3: -7.27; 4: -4.07
